- testTarget: ADRB1 (Homo sapiens (Human), UniProt P08588)
- Sequence (P08588 whole entry, the tested form may be a part): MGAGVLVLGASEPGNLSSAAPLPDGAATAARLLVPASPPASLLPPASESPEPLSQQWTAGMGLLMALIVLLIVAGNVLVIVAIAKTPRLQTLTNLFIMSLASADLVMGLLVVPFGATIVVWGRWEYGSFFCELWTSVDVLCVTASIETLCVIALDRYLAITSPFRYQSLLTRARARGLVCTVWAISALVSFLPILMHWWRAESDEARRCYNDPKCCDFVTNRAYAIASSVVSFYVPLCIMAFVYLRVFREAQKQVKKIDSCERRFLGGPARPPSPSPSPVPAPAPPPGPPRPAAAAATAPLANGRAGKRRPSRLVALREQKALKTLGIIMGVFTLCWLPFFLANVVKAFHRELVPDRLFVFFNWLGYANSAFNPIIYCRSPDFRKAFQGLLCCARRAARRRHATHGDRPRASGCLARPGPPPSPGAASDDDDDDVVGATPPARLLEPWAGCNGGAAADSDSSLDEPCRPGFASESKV
- measurementDescription: cAMP assay (homogenous time-resolved fluorescence) in HEK-293 cells stably expressing human recombinant ADRB1
- Format: cell-based
- measurementParameters: HEK293, 0.5 h; Table 4; percent efficacy compared to the maximum response achieved with isoproterenol; read-out: cAMP pathway % Iso max
Would you kindly list Emax for each of these molecules?

// each molecule listed below needs its Emax
1. O=C(NCCNC[C@H](O)COc1ccc(O)cc1)N1CC(CO)C1
2. COc1ccccc1OCCNC[C@H](O)COc1ccc(O)cc1

Result:
["40.1%", "83.3%"]

Field: Emax. Fill in for each record below.
1. COc1ccc(CCOCCNC[C@H](O)COc2ccc(O)cc2)cc1OC
2. O=C(CCCNC[C@H](O)COc1ccc(O)cc1)N1CCOCC1

Result:
["60.2%", "71.9%"]

Hey, can you go through the list below and give me Emax for every item?
1. O=C(NCCNC[C@H](O)COc1ccc(O)cc1)N1CC(O)C1
2. O=C(CCNC[C@H](O)COc1ccc(O)cc1)N1CCOCC1

Result:
1: 42%; 2: 73.9%

###

- testTarget: ADRB2 (Homo sapiens (Human), UniProt P07550)
- Sequence (P07550 whole entry): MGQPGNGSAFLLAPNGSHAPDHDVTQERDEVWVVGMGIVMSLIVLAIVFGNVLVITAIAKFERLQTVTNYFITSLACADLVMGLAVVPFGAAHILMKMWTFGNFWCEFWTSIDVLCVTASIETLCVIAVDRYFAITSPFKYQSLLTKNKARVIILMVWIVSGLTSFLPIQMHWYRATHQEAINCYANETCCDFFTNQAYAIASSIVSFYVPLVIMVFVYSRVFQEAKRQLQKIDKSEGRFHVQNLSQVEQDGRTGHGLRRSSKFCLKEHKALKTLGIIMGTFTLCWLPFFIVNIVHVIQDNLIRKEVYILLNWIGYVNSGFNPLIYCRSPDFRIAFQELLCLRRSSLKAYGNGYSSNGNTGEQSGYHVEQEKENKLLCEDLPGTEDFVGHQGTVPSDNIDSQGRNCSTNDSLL
- measurementDescription: Tag-lite Adrenoceptor Beta2 receptor ligand binding assay
- measurementParameters: Table 7; read-out: ADRB2 IC50 from binding assay
- Protocol: The subtype selective activity of some compounds of interest was assessed for adrenergic receptor beta 1 (ADRB1) versus adrenergic receptor beta 2 (ADRB2). ADRB1 EC50 from functional assay (nM)^a, Determined using the homogenous time-resolved fluorescence detection method with HEK-293 cells stably expressing human recombinant ADRB1. ADRB2 IC50 from binding assay(nM)^b, Determined using the Tag-lite Adrenoceptor Beta2 receptor ligand binding assay.
metric: pIC50
Answers are plain numbers, as −log10 of the molar value.

Example entries and their recorded answers appear below.
molecule=Cc1n[nH]c2cccc(OC[C@@H](O)CNCCOc3ccccn3)c12 metric=pIC50 experimentalvalue=9.64
molecule=Cc1n[nH]c2cccc(OC[C@@H](O)CNC(C)(C)COc3ccccn3)c12 metric=pIC50 experimentalvalue=9.84
molecule=Cc1n[nH]c2cccc(OC[C@@H](O)CNC(C)(C)C)c12 metric=pIC50 experimentalvalue=10.19
molecule="COc1ccccc1CC(C)NC[C@H](O)COc1cccc2[nH]nc(C)c12 (some centres unmarked)" metric=pIC50 experimentalvalue=11.05

Next:
Ask: For the molecule "COCC(C)(C)NC[C@H](O)COc1cccc2[nH]nc(C)c12" , what pIC50 is on record?
Result: 10.72

###

- testTarget: ADRB1 (Homo sapiens (Human))
- measurementDescription: β-arrestin assay (PathHunter enzyme fragment complementation, CHO-K1-ADRB1 cells)
- Assay type: cell-based
- measurementParameters: Table 4; percent efficacy compared to the maximum response achieved with isoproterenol
- Procedure: Pharmacological activity of compounds in the β-arrestin pathway mediated by ADRB1 are evaluated using an enzyme fragment complementation method with a β-galactosidase functional reporter. An engineered CHO-K1-ADRB1 PathHunter cell line (DiscoveRx) is used in the assay. […] Chemiluminescent signal is then read with a PerkinElmer Envision™ instrument. The results are expressed as a percent of the maximum efficacy achieved with isoproterenol. […]
metric: β-arrestin pathway % Iso max (%)
Numbers only, in %.

// below: answered compounds
compound="COc1ccc(CCNCC(O)COc2ccc(O)c(O)c2)cc1OC (centres unmarked)" metric="β-arrestin pathway % Iso max" experimentalvalue=36.5
compound=COc1ccccc1OCCNC[C@H](O)COc1ccc(O)cc1 metric="β-arrestin pathway % Iso max" experimentalvalue=18.3
compound=O=C(CCNC[C@H](O)COc1ccc(O)cc1)N1CCOCC1 metric="β-arrestin pathway % Iso max" experimentalvalue=13.7
compound=COc1ccc(CCOCCNC[C@H](O)COc2ccc(O)cc2)cc1OC metric="β-arrestin pathway % Iso max" experimentalvalue=14

// next item, β-arrestin pathway % Iso max requested
Ask: Please report the recorded β-arrestin pathway % Iso max for "O=C(CCCNC[C@H](O)COc1ccc(O)cc1)N1CCOCC1" .
Result: 18.6

###

- testTarget: panel of CNS relevant targets, including G-protein coupled receptor and transporters
- measurementDescription: Screen against a panel of CNS relevant targets (off-target affinity)
- measurementParameters: broad range of neurotransmitter transporters, ion channels and other CNS proteins
metric: Ki

Ask: Which Ki reading was recorded for the compound O=C(NCCNC[C@H](O)COc1ccc(O)cc1)N1CCOCC1 [(S)-Xamoterol, reference compound] ?
Result: > 10 µM

###

- testTarget: ADRB1 (Homo sapiens (Human), UniProt P08588)
- measurementDescription: β-arrestin assay (PathHunter enzyme fragment complementation, CHO-K1-ADRB1 cells)
- Assay type: cell-based
- measurementParameters: Table 4; read-out: β-arrestin pathway ADRB1 EC50
pEC50: −log10 of the molar value.
metric: pEC50

Please review the following examples before continuing.
compound=O=C(CCCNC[C@H](O)COc1ccc(O)cc1)N1CCOCC1 experimentalvalue="6.00 to 7.00"
compound=COc1ccccc1OCCNC[C@H](O)COc1ccc(O)cc1 experimentalvalue="7.00 to 8.00"
compound=COc1ccc(CCOCCNC[C@H](O)COc2ccc(O)cc2)cc1OC experimentalvalue="6.00 to 7.00"

Working through the 2 compounds below one at a time, give pEC50 for each.
1. COc1ccc(CCNCC(O)COc2ccc(O)c(O)c2)cc1OC (centres unmarked)
2. O=C(CCNC[C@H](O)COc1ccc(O)cc1)N1CCOCC1

Result:
1: 7.00 to 8.00; 2: 7.00 to 8.00

###

- testTarget: UniProt:P08588
- measurementDescription: cAMP assay (homogenous time-resolved fluorescence) in HEK-293 cells stably expressing human recombinant ADRB1
- Format: cell-based
metric: pEC50
One number for each entry, as −log10 of the molar value.

Ask: Item COc1ccccc1CC(C)NC[C@H](O)COc1cccc2[nH]nc(C)c12 (stereo partly shown) has what recorded pEC50?
Result: 9.10

###

- testTarget: ADRB1 (Homo sapiens (Human), UniProt P08588)
- measurementDescription: cAMP assay (homogenous time-resolved fluorescence) in HEK-293 cells stably expressing human recombinant ADRB1
- Format: cell-based
- measurementParameters: Table 7; read-out: ADRB1 EC50 from functional assay
Answer each item with its documented EC50.
Your reply should be a number followed by the unit it is expressed in.

structuresmiles=COCC(C)(C)NC[C@H](O)COc1cccc2[nH]nc(C)c12 experimentalvalue="3.4 nM"
structuresmiles=Cc1n[nH]c2cccc(OC[C@@H](O)CNC(C)(C)C)c12 experimentalvalue="3.5 nM"
structuresmiles=COc1ccccc1OCCNC[C@H](O)COc1cccc2[nH]nc(C)c12 experimentalvalue="9.2 nM"
structuresmiles=Cc1n[nH]c2cccc(OC[C@@H](O)CNC(C)(C)COc3ccccn3)c12 experimentalvalue="44.7 nM"

Look up EC50 for the entries below, preserving their order.
1. COc1ccc(OCCNC[C@H](O)COc2cccc3[nH]nc(C)c23)cc1OC
2. Cc1n[nH]c2cccc(OC[C@@H](O)CNCCc3ccccc3C(F)(F)F)c12
3. Cc1n[nH]c2cccc(OC[C@@H](O)CNCCOc3ccccn3)c12

Result:
["35.4 nM", "1 nM", "5 nM"]

###

- measurementDescription: Pharmacokinetic study, 4 hour time course
- Format: in vivo, Sprague-Dawley rats
- measurementParameters: Sprague-Dawley, rat, in vivo, po, 10 mg/kg, 10 mg/kg PO - Portal vein, read-out: Cmax
metric: Cmax (ng/mL)
Answers are plain numbers, in ng/mL.

Ask: Record request: Cmax value, item "COc1ccccc1OCCNC[C@H](O)COc1ccc(O)cc1"
Result: 946
